- ASSAY_COMMENT: folding enthalpy; higher = less favourable; fluorescence melt of hairpins on a sequencing array, two-state fit
- COND: sodium 0.088 M
If the reported folding enthalpy equals or exceeds -40 kcal/mol, assign Satisfied. If not, assign Not satisfied.

Here are 10 sequences together with their reported answers.
INSERT INTO measurements (sequence_entry, label) VALUES
  ('CGGACGGAAACGTTTCCG ((((((....)))..)))', 'Satisfied'),
  ('GATCAGGTTTCTGATC ((((((....))))))', 'Not satisfied'),
  ('GTTGTTCGAAAGAAAAAC (((.(((....))).)))', 'Satisfied'),
  ('GGGTTACGAAAGTACCC (((.(((....))))))', 'Satisfied'),
  ('GATCTTGTGTAAGATC ((((((....))))))', 'Satisfied'),
  ('GGGTGAGGAAACTCATCC ((.((((....)))).))', 'Not satisfied'),
  ('GATCACCTCGTGATC ((((((...))))))', 'Satisfied'),
  ('GATGCCGAAAGGCTTATC ((((((....)))..)))', 'Satisfied'),
  ('GTTATATCGAAAGATAAC (((..(((....))))))', 'Satisfied'),
  ('GCCAGAGAAATCTGGC ((((((....))))))', 'Satisfied');

Given GCCGCTCGAAAGAGGGC (((.(((....)))))) , state whether its folding enthalpy is at least -40 kcal/mol. Satisfied

Given GATCCAGGTGTGGATC ((((((....)))))) , state whether its folding enthalpy is at least -40 kcal/mol. Not satisfied

Given GATCCGATCGCGGATC ((((((....)))))) , state whether its folding enthalpy is at least -40 kcal/mol. Satisfied

Given GCCGCAACGAAAGTTGGC (((..(((....)))))) , state whether its folding enthalpy is at least -40 kcal/mol. Satisfied

Given GTTCACGAAAGTGGAAC ((((((....))).))) , state whether its folding enthalpy is at least -40 kcal/mol. Satisfied

* * *

- ASSAY_COMMENT: melting temperature; fluorescence melt of hairpins on a sequencing array, two-state fit, raised by 9.35 °C to match UV melts
- COND: sodium 0.088 M
TEST_READOUT: Tm (°C)
Give the value in °C but do not write °C after it.

Example cases with answers are listed next.
INSERT INTO measurements (sequence_entry, test_readout, meas_value) VALUES
  ('GTAGTAGGAAACTACTAC (((((((....)))))))', 'Tm', 53.3),
  ('GCGACTTTCGC ((((...))))', 'Tm', 49),
  ('GTTCGGCGAAAGCCTAAC (((.(((....))).)))', 'Tm', 43);

So what's the measured Tm for this one? GCTACCGAAAGGTGAAGC ((((((....)))..))) 42

So what's the measured Tm for this one? GTCGCCGAAAGGCGAGAC ((((((....)))..))) 51.8

* * *

- ASSAY_COMMENT: melting temperature; fluorescence melt of hairpins on a sequencing array, two-state fit, raised by 9.35 °C to match UV melts
- COND: sodium 0.088 M
If the reported Tm equals or exceeds 50 °C, assign yes (1). If not, assign no (0).

Here are 10 sequences together with their reported answers.
INSERT INTO measurements (sequence_entry, label) VALUES
  ('GATCTCCAGGAGATC ((((((...))))))', 'yes (1)'),
  ('GCATTGCGAAAGCCAGGC ((.(.((....)).).))', 'no (0)'),
  ('GCAGGGCGAAAGCGCGGC ((.(.((....)).).))', 'yes (1)'),
  ('GATCGCTGGGCGATC ((((((...))))))', 'yes (1)'),
  ('GCGGATCGAAAGATTCGC (((.(((....))).)))', 'yes (1)'),
  ('GCGGGGCGAAAGCGGCGC (((..((....))..)))', 'yes (1)'),
  ('GGCCCGGCGAAAGCCGCC (((..(((....))))))', 'no (0)'),
  ('GATCTTAGAAAAGATC ((((((....))))))', 'no (0)'),
  ('GAGTGACGAAAGTCGCTC (((.(((....))).)))', 'yes (1)'),
  ('GAAGTTGGAAACGATTTC (((.(.(....).).)))', 'no (0)');

Given GATCCGGGGACGGATC ((((((....)))))) , state whether its Tm is at least 50 °C. yes (1)

Given GTAGGTCGAAAGACATAC (((.(((....))).))) , state whether its Tm is at least 50 °C. yes (1)

Given GATCCTCCTAGGATC ((((((...)))))) , state whether its Tm is at least 50 °C. yes (1)

Given GCATCACGAAAGTGTTGC (((.(((....))).))) , state whether its Tm is at least 50 °C. yes (1)

Given GACGAACGAAAGTTTGTC (((.(((....))).))) , state whether its Tm is at least 50 °C. yes (1)

Given GATCAATGCTTGATC ((((((...)))))) , state whether its Tm is at least 50 °C. no (0)

Given GAAGCACGAAAGTGGTTC (((.(((....))).))) , state whether its Tm is at least 50 °C. yes (1)
